The reported measurements were obtained from patent US20220402862A1.

- MEASUREMENT DESCRIPTION: RNA encapsulation efficiency of LNPs (Ribogreen fluorescence assay)
- Type: physicochemical
- CONDITION CONTEXT: LNP, sg:mRNA 1:1.3, N/P about 6, amine lipid/DSPC/cholesterol/PEG-2k-DMG 50/9/38/3; Table 2, Experiment 1
- Experimental: A fluorescence-based assay (Ribogreen®, ThermoFisher Scientific) is used to determine total RNA concentration and free RNA. Encapsulation efficiency is calculated as (Total RNA-Free RNA)/Total RNA. […] A SpectraMax M5 Microplate Reader (Molecular Devices) is used to read the samples with excitation, auto cutoff and emission wavelengths set to 488 nm, 515 nm, and 525 nm respectively. Total RNA and free RNA are determined from the appropriate standard curves. […]
READOUT LABEL: Encapsulation (%)

[[record]]
molecule = "CCCCC/C=C\\C/C=C\\CCCCCCCC(=O)OCC(COC(=O)CCC(OCCCCCCCC)OCCCCCCCC)COC(=O)OCCCN(CC)CC (stereo not drawn) [Compound 1, reference compound]"
measurement_units = "%"
reported_result = 97

[[record]]
molecule = "CCCCC/C=C\\C/C=C\\CCCCCCCC(=O)OCC(COC(=O)CCC(OCCCCCCCC)OCCCCCCCC)COC(=O)OCC1CCCN(CC)C1 (stereo not drawn)"
measurement_units = "%"
reported_result = 98

[[record]]
molecule = "CCCCC/C=C\\C/C=C\\CCCCCCCC(=O)OCC(COC(=O)CCC(OCCCCCCCC)OCCCCCCCC)COC(=O)NCCCN(C)C (stereo not drawn)"
measurement_units = "%"
reported_result = 100

[[record]]
molecule = "CCCCC/C=C\\C/C=C\\CCCCCCCC(=O)OCC(COC(=O)CCC(OCCCCCCCC)OCCCCCCCC)COC(=O)OCCCN1CCCC1 (stereo not drawn)"
measurement_units = "%"
reported_result = 91

[[record]]
molecule = "CCCCC/C=C\\C/C=C\\CCCCCCCC(=O)OCC(COC(=O)CCC(OCCCCCCCC)OCCCCCCCC)COC(=O)OCCCN(C)C (stereo not drawn)"
measurement_units = "%"
reported_result = 96

[[record]]
molecule = "CCCCC/C=C\\C/C=C\\CCCCCCCC(=O)OCC(COC(=O)CCC(OCCCCCCCC)OCCCCCCCC)COC(=O)OCCCN(C)CCN(C)C (stereo not drawn)"
measurement_units = "%"
reported_result = 100


----------
- MEASUREMENT DESCRIPTION: Dynamic light scattering of LNPs: Z-average diameter, number average diameter, PDI
- Type: physicochemical
- CONDITION CONTEXT: LNP, sg:mRNA 1:1, N/P 6.0, 50/9/38/3; Table 4, Experiments 101-104
- Text: Dynamic Light Scattering (“DLS”) is used to characterize the polydispersity index (“PDI”) and size of the LNPs of the present disclosure. DLS measures the scattering of light that results from subjecting a sample to a light source. PDI, as determined from DLS measurements, represents the distribution of particle size (around the mean particle size) in a population, with a perfectly uniform population having a PDI of zero. […]
READOUT LABEL: Z-avg (nm)

[[record]]
molecule = "CCCCC/C=C\\C/C=C\\CCCCCCCC(=O)OCC(COC(=O)CCC(OCCCCCCCC)OCCCCCCCC)COC(=O)NCC1CCCN1CC (centres unmarked)"
measurement_units = "nm"
reported_result = 83.69

[[record]]
molecule = "CCCCC/C=C\\C/C=C\\CCCCCCCC(=O)OCC(COC(=O)CCCN(CC)CC)COC(=O)CCC(OCCCCCCCC)OCCCCCCCC (centres unmarked)"
measurement_units = "nm"
reported_result = 84

[[record]]
molecule = "CCCCCC/C=C\\COC(=O)CCCCCCCC(=O)OCC(COC(=O)CCC(OCCCCCCCC)OCCCCCCCC)COC(=O)OCCCN(CC)CC (centres unmarked)"
measurement_units = "nm"
reported_result = 96.98

[[record]]
molecule = "CCCCC/C=C\\C/C=C\\CCCCCCCC(=O)OCC(COC(=O)CCC(OCCCCCCCC)OCCCCCCCC)COC(=O)OCC1CCCN(C)C1 (centres unmarked)"
measurement_units = "nm"
reported_result = 70.47

[[record]]
molecule = "CCCCC/C=C\\C/C=C\\CCCCCCCC(=O)OCC(COC(=O)CCC(OCCCCCCCC)OCCCCCCCC)COC(=O)C1CCN(C)CC1 (centres unmarked)"
measurement_units = "nm"
reported_result = 76

